assay details: MELAS cybrid and Rieske KO viability enhancers – cell-based, MELAS cybrids, Rieske KO mouse fibroblasts, CellTiter-Glo, primary screen (AID 1508586);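 also: z relative to plate mean and SD of compound and empty wells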
condition: MELAS cybrid survival, low glucose, CellTiter-Glo 48 h; stronger effect = higher value
Outcome: Criterion met for z-score of at least -0.5; Criterion not met for anything lower.

Use these answered entries as a reference point.
molecule="NC(Cc1cc(I)c(Oc2cc(I)c(O)c(I)c2)c(I)c1)C(=O)O (stereo unspecified)" category_label="Criterion met"
molecule="O=C1CC(c2ccc(O)cc2)Oc2cc(O)ccc21 (stereo unspecified)" category_label="Criterion met"
molecule=CN(C)C(=O)Nc1cccc(-c2ccc(N(C)C)cc2)c1 category_label="Criterion met"
molecule=CCCCN(Cc1ccc(C(=O)NO)cc1)C(=O)Nc1ccccc1 category_label="Criterion not met"
molecule="C=CCn1nc(C(=O)N2CCSCC2)c2c1CCC(N1CCOc3ccc(Cl)cc3C1)C2 (stereo unspecified)" category_label="Criterion not met"

Now turn to the next molecule.
## Task Can `O=C(O)CSc1nc(-c2cccc(Cl)c2)no1` be said to have z-score at or above -0.5?
## Result Criterion met

====

assay details: MELAS cybrid and Rieske KO viability enhancers – cell-based, MELAS cybrids, Rieske KO mouse fibroblasts, CellTiter-Glo, primary screen (AID 1508586);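 also: z relative to plate mean and SD of compound and empty wells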
condition: Rieske KO mouse fibroblast survival, low glucose, CellTiter-Glo 72 h
property: z-score
Give bare numbers.

compound="Cn1cc(CN2CC(OCc3cccnc3)CN(Cc3cn[nH]c3-c3ccccc3)CC2=O)cn1 (stereo not given)" result_value=-0.506
compound="CCC(C)Nc1cc(C(=O)NC2CC3CCC(C2)N3c2ccc(C(=O)C3CC3)cn2)c(C)cc1C(N)=O (stereo not given)" result_value=-1.06
compound=CNCCC=C1c2ccccc2C=Cc2ccccc21 result_value=0.365
compound=CC(C)n1ncc(NC(=O)Cn2ccc(-c3ccc(C(F)(F)F)cc3)n2)n1 result_value=-0.0246
compound=Cn1nccc1-c1cc(C(=O)NCc2ccc(S(C)(=O)=O)cn2)c(=O)n(-c2cccc(C(F)(F)F)c2)c1 result_value=0.346
compound="OC(c1cc(C(F)(F)F)nc2c(C(F)(F)F)cccc12)[C@H]1CCCCN1 (stereo not given in full)" result_value=-0.0437
compound="Cc1ncsc1CCn1nc(C(=O)NC2CC2)c2c1CCN(C(=O)C1Cc3ccccc3O1)C2 (stereo not given)" result_value=4.81
compound="Cc1nc2ccc(CN(C)c3ccc(C(=O)NC(CCC(=O)O)C(=O)O)s3)cc2c(=O)[nH]1 (stereo not given)" result_value=-0.121

Hi, could you look up z-score for each item in my list?
1. O=C(O)CSc1nc(-c2cccc(Cl)c2)no1
2. Cc1nc(C(=O)O)nn1-c1cc(Cl)cc(Cl)c1

## Result
-0.279
-0.479

====

assay details: liver-stage malaria parasite load reduction – cell-based, known kinase inhibitor set, luminescence, hepatoma host viability (AID 624392);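 also: infected cells incubated roughly two days before readout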
condition: Plasmodium liver stage in hepatoma cells, luciferase luminescence, concentration not given here; measured here: host liver cell viability
property: liver cell % of control (%)
Answers are plain numbers, in %.

sample_smiles=Cc1ccc(C(=O)Nc2cccc(C(F)(F)F)c2)cc1Nc1cnccn1 units=% result_value=98.3
sample_smiles=CCN1CCN(Cc2ccc(NC(=O)c3ccc(C)c(NC(=O)C4=NN(c5ccccc5)C(=O)C4)c3)cc2C(F)(F)F)CC1 units=% result_value=101

For each entry beneath this line, provide reported liver cell % of control.
1. NC(=O)c1cccc(-c2cnc(N)c(C(=O)c3cccnc3)n2)c1
2. CCS(=O)(=O)c1ccc(OC)c(Nc2ncc(-c3cccc(C(C)=O)c3)o2)c1
3. c1ccc(-c2[nH]ncc2-c2ccnc3ccccc23)nc1

## Result
1: 101; 2: 169; 3: 101
